Origin of measurements: ChEMBL document CHEMBL4627371

- EXPERIMENTAL PROTOCOL: Toxicity in BALB/c nu/nu mouse xenografted with human A2780 cells assessed as mouse death at 50 mg/kg, iv administered 3 times a week for 2 weeks starting from 5 to 6 days post tumor inoculation
- Type: organism-based
- TEST CONTEXT: in vivo
MEASURED PROPERTY: Activity

Worked set:
Request: Which measured Activity value corresponds to CCNC(=O)c1noc(-c2cc(C(C)C)c(O)cc2O)c1-c1cn[nH]c1 ?
Response: Non-Toxic

Request: Which measured Activity value corresponds to CCNC(=O)c1noc(-c2cc(C(C)C)c(O)cc2O)c1-c1cc(CN(CC)CC)no1 ?
Response: Non-Toxic

Request: Which measured Activity value corresponds to CCNC(=O)c1noc(-c2cc(C(C)C)c(O)cc2O)c1-c1cc[nH]n1 ?
Response: Non-Toxic

Request: Which measured Activity value corresponds to CCNC(=O)c1noc(-c2cc(C(C)C)c(O)cc2O)c1-c1ccn(C(C)C)n1 ?
Response: Non-Toxic

As a next step, examine the compound that follows.
Request: Which measured Activity value corresponds to CCNCc1cc(-c2c(C(=O)NCC)noc2-c2cc(C(C)C)c(O)cc2O)on1 ?
Response: Non-Toxic
